System: S. aureus ATCC 25923
Assay: MIC, microdilution method (9.1)
Assay type: cell-based, Staphylococcus aureus
Details: Staphylococcus aureus, ATCC25923, read after 18 h, read-out: MIC
Attribute: MIC

>>> obs_value("Cn1cc(C(=O)NC(CNC(=O)OC(C)(C)C)c2c[nH]c3ccc(Br)cc23)c2cc(Br)ccc21 (stereo not drawn)")
"> 128 µg/mL"
>>> obs_value("CC(C)(C)OC(=O)NCC(NC(=O)c1c[nH]c2ccc(Br)cc12)c1c[nH]c2ccc(Br)cc12 (stereo not drawn)")
"1 µg/mL"

What MIC value was documented for this molecule, CC(C)(C)OC(=O)NCC(NC(=O)c1c[nH]c2ccccc12)c1c[nH]c2ccccc12 (stereo not drawn) ?
> 128 µg/mL

* * *

Test system: S. aureus CIP 103428
Experiment: MIC, microdilution method (9.1)
Type: cell-based, Staphylococcus aureus
Settings: Staphylococcus aureus, CIP103428, read after 18 h, read-out: MIC
Attribute: log10 of MIC
# log10 transformed; quantity=MIC; unit=µg/mL

>>> obs_value("CC(NC(=O)c1c[nH]c2ccc(F)cc12)c1c[nH]c2ccc(Br)cc12 (centres unmarked)")
1.20
>>> obs_value("CC(C)(C)OC(=O)NCC(NC(=O)C(F)(F)F)c1c[nH]c2ccc(Br)cc12 (centres unmarked)")
2.11
>>> obs_value("CC(NC(=O)c1c[nH]c2ccc(Br)cc12)c1c[nH]c2ccc(Br)cc12 (centres unmarked)")
0.30
>>> obs_value("NCCCCNC(=O)C(NC(=O)c1c[nH]c2ccc(Br)cc12)c1c[nH]c2ccc(Br)cc12 (centres unmarked)")
0.90
>>> obs_value("CC(C)(C)OC(=O)NCC(NC(=O)c1c[nH]c2cc(Br)ccc12)c1c[nH]c2ccc(Br)cc12 (centres unmarked)")
0.00
>>> obs_value("CC(C)(C)OC(=O)NCC(NC(=O)c1c[nH]c2ccc(Br)cc12)c1c[nH]c2ccc(Br)cc12 (centres unmarked)")
0.00

Please examine the following record next.
What log10 of MIC value was documented for this compound, CC(C)(C)OC(=O)NCC(NC(=O)c1c[nH]c2cc(Br)ccc12)c1c[nH]c2ccccc12 (centres unmarked) ?
0.90

* * *

Attribute: MIC
Tested on: S. aureus ATCC 106414 (VISA)
Assay: MIC, microdilution method (9.1)
Assay type: cell-based, Staphylococcus aureus
Settings: Staphylococcus aureus, read after 18 h, read-out: MIC
Method: The microdilution method recommended by the Clinical and Laboratory Standard Institute [M07-A8, Vol. 29, No. 2] was used. The activity of indolic compounds was tested against 29 bacterial strains belonging to 17 different species and 12 different genera (Staphylococcus, Streptococcus, Enterococcus, Listeria, Bacillus, Haemophilus, Escherichia, Klebsiella, Enterobacter, Serratia, Pseudomonas, and Acinetobacter). […]
The answer is to be given in µg/mL; state only the numeric part.

Consider the reported MIC for these molecules:
>>> obs_value("CC(C)(C)OC(=O)NCC(NC(=O)C(F)(F)F)c1c[nH]c2ccc(Br)cc12 (stereo not shown)")
128
>>> obs_value("CC(C)(C)OC(=O)NCC(NC(=O)c1c[nH]c2ccc(Cl)cc12)c1c[nH]c2ccc(Cl)cc12 (stereo not shown)")
4

Please examine the following record next.
What MIC value was documented for this molecule, CC(C)(C)OC(=O)NCC(NC(=O)c1c[nH]c2cc(Br)ccc12)c1c[nH]c2ccccc12 (stereo not shown) ?
8

* * *

Tested on: S. aureus CIP 103428
Experiment: MIC, microdilution method (9.1)
Type: cell-based, Staphylococcus aureus
Conditions: Staphylococcus aureus, CIP103428, read after 18 h, read-out: MIC
quantity: MIC (µg/mL)
The answer is to be given in µg/mL; state only the numeric part.

Consider the reported MIC for these compounds:
>>> obs_value("O=C(NC(CO)c1c[nH]c2ccc(Br)cc12)c1c[nH]c2ccc(Br)cc12 (centres unmarked)")
4
>>> obs_value("CC(C)(C)OC(=O)NCC(NC(=O)c1c[nH]c2ccc(Br)cc12)c1c[nH]c2ccccc12 (centres unmarked)")
8
>>> obs_value("CC(C)(C)OC(=O)NCC(NC(=O)c1cccnc1)c1c[nH]c2ccc(Br)cc12 (centres unmarked)")
64
>>> obs_value("CC(C)(C)OC(=O)NCC(NC(=O)c1c[nH]c2ccc(Cl)cc12)c1c[nH]c2ccc(Cl)cc12 (centres unmarked)")
4
>>> obs_value("CC(C)(C)OC(=O)NCC(NC(=O)c1c[nH]c2ccc(Br)cc12)c1c[nH]c2cc(Br)ccc12 (centres unmarked)")
2

Please examine the following record next.
What MIC value was documented for this compound, CC(C)(C)OC(=O)NCC(NC(=O)c1c[nH]c2ccccc12)c1c[nH]c2cc(Br)ccc12 (centres unmarked) ?
8

* * *

Attribute: MIC
Tested on: Bacillus subtilis CIP 5262
Assay: MIC, microdilution method (9.1)
Assay type: cell-based
Settings: CIP5262, 18 h, read-out: MIC
The answer is to be given in µg/mL; state only the numeric part.

Consider the reported MIC for these compounds:
>>> obs_value("CC(C)(C)OC(=O)NCC(NC(=O)c1c[nH]c2ccc(Br)cc12)c1c[nH]c2ccccc12 (stereo not shown)")
64
>>> obs_value("CC(C)(C)OC(=O)NCC(NC(=O)c1c[nH]c2ccccc12)c1c[nH]c2cc(Br)ccc12 (stereo not shown)")
64
>>> obs_value("CC(C)(C)OC(=O)NCC(NC(=O)c1c[nH]c2ccc(Cl)cc12)c1c[nH]c2ccc(Cl)cc12 (stereo not shown)")
64
>>> obs_value("CC(C)(C)OC(=O)NCC(NC(=O)c1c[nH]c2ccc(Br)cc12)c1c[nH]c2cc(Br)ccc12 (stereo not shown)")
32
>>> obs_value("CC(C)(C)OC(=O)NCC(NC(=O)C(F)(F)F)c1c[nH]c2ccc(Br)cc12 (stereo not shown)")
128

What MIC value was documented for this compound, CC(C)(C)OC(=O)NCC(NC(=O)c1c[nH]c2cc(Cl)ccc12)c1c[nH]c2ccc(Cl)cc12 (stereo not shown) ?
64

What MIC value was documented for this compound, CC(C)(C)OC(=O)NCC(NC(=O)c1cccnc1)c1c[nH]c2ccc(Br)cc12 (stereo not shown) ?
128

What MIC value was documented for this compound, CC(C)(C)OC(=O)NCC(NC(=O)c1c[nH]c2ccc(Br)cc12)c1c[nH]c2ccc(Br)cc12 (stereo not shown) ?
32

What MIC value was documented for this compound, CC(C)(C)OC(=O)NCC(NC(=O)c1c[nH]c2cc(Br)ccc12)c1c[nH]c2ccc(Br)cc12 (stereo not shown) ?
32

What MIC value was documented for this compound, CC(C)(C)OC(=O)NCC(NC(=O)c1c[nH]c2cc(Br)ccc12)c1c[nH]c2cc(Br)ccc12 (stereo not shown) ?
64

* * *

System: S. pneumoniae ATCC 6303
Experiment: MIC, microdilution method (9.1)
Assay type: cell-based, Streptococcus pneumoniae
Conditions: Streptococcus pneumoniae, ATCC6303, 10% sheep blood, 5% CO2, 18 h, read-out: MIC
Attribute: MIC
The answer is to be given in mg/L; state only the numeric part.

Consider the reported MIC for these compounds:
>>> obs_value("CC(C)(C)OC(=O)NCC(NC(=O)c1c[nH]c2ccc(Br)cc12)c1c[nH]c2ccc(Br)cc12 (centres unmarked) [Compound 3f]")
32
>>> obs_value("O=C(NC(C(=O)NCCCCO)c1c[nH]c2ccc(Br)cc12)c1c[nH]c2ccc(Br)cc12 (centres unmarked) [Compound 15]")
128
>>> obs_value("O=C(NC(C(=O)NCCO)c1c[nH]c2ccc(Br)cc12)c1c[nH]c2ccc(Br)cc12 (centres unmarked) [Compound 14]")
128
>>> obs_value("CC(C)(C)OC(=O)NCC(NC(=O)c1c[nH]c2cc(Br)ccc12)c1c[nH]c2ccc(Br)cc12 (centres unmarked) [Compound 3g]")
32
>>> obs_value("CC(C)(C)OC(=O)NCC(NC(=O)c1c[nH]c2ccccc12)c1c[nH]c2cc(Br)ccc12 (centres unmarked) [Compound 3d]")
64

Which MIC is reported with S. pneumoniae ATCC 6303 for this entry: CC(C)(C)OC(=O)NCC(NC(=O)c1cccnc1)c1c[nH]c2ccc(Br)cc12 (centres unmarked) [Compound 10] ?
128

* * *

Tested on: S. pneumoniae ATCC 6303
Assay: MIC, microdilution method (9.1)
Type: cell-based, Streptococcus pneumoniae
Settings: Streptococcus pneumoniae, ATCC6303, 10% sheep blood, 5% CO2, 18 h, read-out: MIC
Protocol: The microdilution method recommended by the Clinical and Laboratory Standard Institute [M07-A8, Vol. 29, No. 2] was used. The activity of indolic compounds was tested against 29 bacterial strains belonging to 17 different species and 12 different genera (Staphylococcus, Streptococcus, Enterococcus, Listeria, Bacillus, Haemophilus, Escherichia, Klebsiella, Enterobacter, Serratia, Pseudomonas, and Acinetobacter). […]
Attribute: MIC
The answer is to be given in µg/mL; state only the numeric part.

>>> obs_value("CC(C)(C)OC(=O)NCC(NC(=O)c1c[nH]c2cc(Br)ccc12)c1c[nH]c2cc(Br)ccc12 (stereo not shown)")
32

Please examine the following record next.
Which MIC is reported with S. pneumoniae ATCC 6303 for this entry: CC(C)(C)OC(=O)NCC(NC(=O)c1c[nH]c2ccc(Cl)cc12)c1c[nH]c2ccc(Cl)cc12 (stereo not shown) ?
32

All figures here come from patent US9676715B2.
